Values compiled from patent US20130012432A1.

target-under-test: T1, human MC4 receptor (human, UniProt P32245 1-332)
T1 construct: whole, on cells; Assayed as membranes of BHK cells stably expressing the receptor; also called melanocortin receptor subtype 4; melanocortin receptor 4
T1 sequence (P32245 whole entry): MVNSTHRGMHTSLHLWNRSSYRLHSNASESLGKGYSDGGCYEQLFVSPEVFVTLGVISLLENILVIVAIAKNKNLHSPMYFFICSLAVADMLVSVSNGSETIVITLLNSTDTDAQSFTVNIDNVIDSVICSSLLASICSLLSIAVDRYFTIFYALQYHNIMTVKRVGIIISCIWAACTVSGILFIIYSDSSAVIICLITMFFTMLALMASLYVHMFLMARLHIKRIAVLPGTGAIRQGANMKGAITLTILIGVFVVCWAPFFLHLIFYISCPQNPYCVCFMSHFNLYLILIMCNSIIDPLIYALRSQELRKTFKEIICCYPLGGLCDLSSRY
assay: 125I-NDP-α-MSH displacement, BHK-human MC4 membranes (Assay V);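 further: Filter-retained radioactivity read by gamma counting, with affinity obtained through non-linear regression fitting of the binding curves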
pKi: −log10 of the molar value. Positions of bridges follow the written chain, without caps; N, C: chain ends. Non-standard residues stand in square brackets, D forms with d. Groups on a side chain read outwards from the residue. Primed or numbered codes have the meaning given here. *: point of attachment. X2 = (2-(2-(16-(tetrazol-5-yl)hexadecanoylamino)ethoxy)ethoxy)acetyl, O=C(CCCCCCCCCCCCCCCc1nn[nH]n1)NCCOCCOCC(=O)*; biscarboxymethyl = Lys(biscarboxymethyl) = Nepsilon-bis(carboxymethyl)-L-lysine; bis(carboxymethyl) = Lys(biscarboxymethyl) = N6-bis(carboxymethyl)-L-lysine; Palmitoyl(16-(5-tetrazolyl)) = O=C(CCCCCCCCCCCCCCCc1nnn[nH]1)*; biscarboxymethyl(3) = Nepsilon-bis(carboxymethyl) on Lys; C18 diacid = O=C(O)CCCCCCCCCCCCCCCCC(=O)*; hCys = N[C@@H](CCS)C(=O)O; Orn = NCCC[C@H](N)C(=O)O; Dap = NC[C@H](N)C(=O)O; AEEA = NCCOCCOCC(=O)O
Please mark YES if the recorded pKi is equal to or greater than 8, and NO if it falls below.

binder	answer-label
Ac-DH[dF]RW[Dap]PPRDK(biscarboxymethyl(3))K([AEEA-Palmitoyl(16-(5-tetrazolyl))])-NH2 (lactam 1-6)	NO
Ac-[Orn]H[dF]RWDPPREK(biscarboxymethyl)K(X2)-NH2 (lactam 1-6)	YES
Ac-[Dap]H[dF]RWEPPRDK(biscarboxymethyl(3))K([AEEA-Palmitoyl(16-(5-tetrazolyl))])-NH2 (lactam 1-6)	YES
Ac-[hCys]H[dF]RWCSPHEK(bis(carboxymethyl))K([AEEA-C18 diacid])-NH2 (disulfide 1-6)	YES
Ac-DH[dF]RW[Orn]PPRDK(biscarboxymethyl(3))K([AEEA-Palmitoyl(16-(5-tetrazolyl))])-NH2 (lactam 1-6)	NO
